Target: Aminopeptidase N (Plasmodium falciparum (isolate 3D7)) (UniProt O96935)
Sequence (O96935 whole entry, looked up): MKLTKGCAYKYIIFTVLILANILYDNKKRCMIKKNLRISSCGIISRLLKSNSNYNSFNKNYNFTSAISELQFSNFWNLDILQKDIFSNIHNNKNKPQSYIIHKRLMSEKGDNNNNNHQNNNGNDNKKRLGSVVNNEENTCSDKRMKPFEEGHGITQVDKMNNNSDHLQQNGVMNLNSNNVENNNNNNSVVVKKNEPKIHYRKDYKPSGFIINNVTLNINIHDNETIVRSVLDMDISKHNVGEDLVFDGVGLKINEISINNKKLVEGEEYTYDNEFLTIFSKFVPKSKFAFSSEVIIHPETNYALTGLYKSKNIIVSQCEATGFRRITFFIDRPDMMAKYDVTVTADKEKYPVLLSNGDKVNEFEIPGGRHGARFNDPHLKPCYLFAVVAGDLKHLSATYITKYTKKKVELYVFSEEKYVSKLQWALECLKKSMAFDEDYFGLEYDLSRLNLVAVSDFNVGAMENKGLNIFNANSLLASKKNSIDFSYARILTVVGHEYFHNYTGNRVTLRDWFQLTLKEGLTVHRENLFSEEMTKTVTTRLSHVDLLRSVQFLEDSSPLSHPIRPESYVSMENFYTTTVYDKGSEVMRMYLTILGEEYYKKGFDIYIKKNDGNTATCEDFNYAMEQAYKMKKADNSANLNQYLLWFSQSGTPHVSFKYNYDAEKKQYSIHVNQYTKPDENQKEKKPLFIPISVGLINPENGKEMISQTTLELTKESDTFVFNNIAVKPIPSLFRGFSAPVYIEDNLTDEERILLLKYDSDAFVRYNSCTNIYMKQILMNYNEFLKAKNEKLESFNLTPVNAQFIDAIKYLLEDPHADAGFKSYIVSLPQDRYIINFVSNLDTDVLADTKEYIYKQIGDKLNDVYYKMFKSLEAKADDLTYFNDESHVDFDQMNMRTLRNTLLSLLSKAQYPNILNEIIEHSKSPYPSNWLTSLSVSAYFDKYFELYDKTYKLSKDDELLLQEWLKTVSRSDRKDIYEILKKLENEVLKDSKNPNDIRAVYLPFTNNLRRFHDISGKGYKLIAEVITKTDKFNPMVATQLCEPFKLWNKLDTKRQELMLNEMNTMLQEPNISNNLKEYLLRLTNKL
Test: malaria alanyl aminopeptidase activity blockers – biochemical, fluorogenic H-Leu-NHMec substrate, 1536-well (AID 1445);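 note: plate controls were DMSO full reaction for no effect and no enzyme background for full effect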
Settings: recombinant M1AAP, H-Leu-NHMec fluorogenic kinetic assay; at 30 µM, active compounds read high unless noted
Hit rate of the full screen: of about 220,000 compounds, about 910 (0.41%) were called active. The list comes from a sample in which actives are over-represented; it also holds close analogues and randomly drawn compounds. Entries with a potency or affinity are not part of this list.
For each entry below, report its inhibition value.
Numbers only, in %.

In plain terms, CCOc1cc(OCC)nc(S(C)(=O)=O)n1 has a documented inhibition of 2.35

# inhibition of CCCn1c2ccccc2c2nnc(SCC(=O)Nc3cc(C)on3)nc21 = 10.3

Noted for Cc1cc(SCC(=O)N2CCC(c3noc4ccc(F)cc34)CC2)nc2ccccc12 : its inhibition reads 7.53

Each compound below has a recorded value; state its inhibition.
1. CCOC(=O)c1ccc(NC(=O)COc2ccc(S(=O)(=O)N3CCCC3)cc2)cc1
2. CC(C)COc1ccc(C(=O)OCCN2CCOCC2)cc1

Result:
1: 10.4; 2: 0.38

Consider the following items and state reported inhibition for each.
1. O=C(Nc1ccc(O)cc1)c1ccc2c(c1)C(=O)N(Cc1ccco1)C2=O
2. CCCn1c(CNc2ccccc2O)nc2ccccc21
3. CC(=O)Oc1cc2oc(=O)c3c(c2cc1Cl)CCC3
4. COc1cc(C(N)=O)cc(Br)c1OC
5. O=C(CN1C(=O)S/C(=C\c2ccccc2)C1=O)NNC(=O)c1ccccc1O
6. Cc1ccc2[nH]c(=O)c(CNC(C)C)cc2c1
7. O=C(NCc1ccncc1)C1CCN(S(=O)(=O)Cc2ccccc2)CC1

Result:
3.19
0.88
38.1
23.4
6.38
11.4
22.4

List inhibition for every entry below, keeping the order given.
1. Cc1ccc(N2C(=O)CCC2(C(N)=O)c2ccccc2)cc1 (stereo not drawn)
2. Cc1ccccc1NC(=O)c1ccccc1O

Result:
-0.36
12.9

Working through the 7 compounds below one at a time, give inhibition for each.
1. O=C(CCCCl)OCc1cn(-c2ccc(Cl)cc2)nn1
2. O=C(CCc1ccc(O)cc1)NNC(=S)NCCc1ccccc1
3. CCc1nnc(SCC(=O)N2CCCc3ccccc32)nc1CC
4. CCOC(=O)c1cccc(Nc2ncnc3ccccc23)c1
5. CCn1nnnc1SCC(=O)Nc1ccc(OCc2ccccc2)cc1
6. CCN(CC(N)=O)S(=O)(=O)c1ccc(F)cc1
7. O=c1c(Cc2ccc(Cl)cc2)c(O)ccn1Cc1ccccc1

Result:
1: 8.74; 2: -1.96; 3: 0.48; 4: 6.34; 5: 7.63; 6: 2.95; 7: 1.46

Hi there! I need inhibition for each item below, if you can.
1. Cc1ccc2c(c1)c1nnc(SCC(=O)N3CCN(c4ccc(F)cc4)CC3)nc1n2CC(=O)O
2. CCOC(=O)C1C(=O)CC(C)(O)C(C(=O)OCC)C1c1ccc(Br)cc1 (stereo not drawn)

Result:
[2.3, 11.1]

# map each compound to its inhibition
1. CC(=O)NNC(=S)NCCc1ccccc1
2. CCOc1ccccc1NC(=S)N1CCCc2ccccc21
3. O=C(N/N=C(\Cc1ncc[nH]1)c1ccccc1)c1cccnc1
4. Cc1ccc(NC(=O)C2CCN(C(=O)c3ccccc3C)CC2)cc1
5. CN(C)c1nc(-c2ccc([N+](=O)[O-])cc2)cs1
6. COc1cccc(C2=NOC(C(=O)NCCCn3ccnc3)C2)c1 (stereo not drawn)
7. CCn1c(C(=O)N2CCC(C(=O)NCc3cccs3)CC2)cc2sccc21
8. C=CCNc1ncnc2c1ncn2C1OC(CO)C(O)C1O (stereo not drawn)

Result:
1. 6.55
2. 2.13
3. 16.6
4. 4.97
5. 4.18
6. 2.65
7. 18.2
8. -2.12

I'm hoping you can list inhibition for every compound here, please.
1. O=c1cc(-c2ccccc2)c2cc(Cl)c(O)c(CN3CCOCC3)c2o1
2. O=C(c1ccco1)N1CCN(C(c2ccccc2Cl)c2nnnn2Cc2cccs2)CC1 (stereo not drawn)
3. Cc1nn(CCS(=O)(=O)c2ccc(Cl)cc2)c(C)c1Br

Result:
1: 5.98; 2: 1.56; 3: 0.55

Okay, here is my list. What is inhibition for each of these?
1. O=C(NCc1ccccc1)C12CC3CC(CC(C3)C1)C2
2. COc1cccc(OC)c1OCCCOc1ccc(C)cc1Br

Result:
-3.07
3.98

Give inhibition for each of the items listed below.
1. CCn1c2ccccc2c2nnc(SCC(=O)Nc3c(C)n(C)n(-c4ccccc4)c3=O)nc21
2. O=C1c2ccccc2C(=O)N1Cc1ccco1

Result:
1. 0.94
2. 3.2
